target: human polyclonal IgG; assay: Isothermal titration calorimetry (ITC) of IgG:ligand binding in solution; settings: 25° C, PBS pH 7.4, peptide in solution, independent binding model
Measurement Name: pKd
For clarity, pKd is expressed as the negative log10 of concentration in mol/L.

Query string: Given the substance WQRHGI , what is its reported pKd?
Result string: 4.23

All figures here come from patent US20230399358A1.
